The values you see were collected from patent US20260152568A1.

# target.desc: T1, human PVR (SPR of the humanized variants, Example 5) (human, UniProt P15151 21-343)
# T1 sequence: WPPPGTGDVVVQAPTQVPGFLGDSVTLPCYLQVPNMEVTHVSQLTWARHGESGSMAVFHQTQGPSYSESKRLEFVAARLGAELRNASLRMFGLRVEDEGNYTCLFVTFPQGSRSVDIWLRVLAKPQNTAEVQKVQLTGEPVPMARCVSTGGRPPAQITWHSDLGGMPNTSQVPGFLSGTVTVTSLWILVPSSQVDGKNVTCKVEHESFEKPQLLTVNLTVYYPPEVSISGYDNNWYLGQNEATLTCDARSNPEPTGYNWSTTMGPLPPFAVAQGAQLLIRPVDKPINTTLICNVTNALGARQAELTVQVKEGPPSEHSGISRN
# experiment.description: SPR; relative to N56E VH0/Vκ0
reported.endpoint: Relative KD
API note: the answer field is a bare number with no unit suffix.

binder	Relative KD
IgG4(S241P)_N56E_VH1/Vκ0 (antibody, V domains shown, half-humanized control pairing; also called VH1/Vk0) VH: QVQLVQSGAELKKPGASVKISCKATGYTFSNYWIEWIKQAPGQGLEWIGEIFPGSGRINFNEKFKGRATFTADTSIDTTYMQLSSLTSDDSAVYYCARTKIYGNSFDYWGQGTTVTVSS VL: DIMMTQSHKFMSTSVGDRVNITCKASQDVGTAVVWYQQKPGQSPKLLIYWASSRHEGVPDRFTGSGSGTDFTLTISNVQSEDLSDYFCQQYSRYPLTFGAGTKLELK	0.81
IgG4(S241P)_N56E_VH5/Vκ4 (antibody, V domains shown, humanized 5B9 variant with Vk4; also called VH5/Vk4) VH: QVQLVQSGAEVKKPGASVKVSCKATGYTFSNYWIEWVRQAPGQGLEWMGEIFPGSGRINFNEKFKGRVTFTADTSISTAYMELSRLRSDDTAVYYCARTKIYGNSFDYWGQGTLVTVSS VL: DIQMTQSPSSLSASVGDRVTITCRASQDVGTAVAWYQQKPGKAPKSLIYWASSRHEGVPSRFSGSGSGTDFTLTISSLQPEDFATYFCQQYSRYPLTFGQGTKLEIK	13.9
IgG4(S241P)_N56E_VH3/Vκ4 (antibody, V domains shown, humanized 5B9 variant with Vk4, as IgG4; also called VH3/Vk4) VH: QVQLVQSGAEVKKPGASVKVSCKATGYTFSNYWIEWIKQAPGQGLEWIGEIFPGSGRINFNEKFKGRVTFTADTSISTTYMELSRLRSDDTAVYYCARTKIYGNSFDYWGQGTLVTVSS VL: DIQMTQSPSSLSASVGDRVTITCRASQDVGTAVAWYQQKPGKAPKSLIYWASSRHEGVPSRFSGSGSGTDFTLTISSLQPEDFATYFCQQYSRYPLTFGQGTKLEIK	13.6
humanized 5B9 variant VH2/VK1 (antibody, V domains shown) VH: QVQLVQSGAEVKKPGASVKISCKATGYTFSNYWIEWIKQAPGQGLEWIGEIFPGSGRINFNEKFKGRATFTADTSIDTTYMELSRLRSDDTAVYYCARTKIYGNSFDYWGQGTLVTVSS VL: DIMMTQSPSFLSASVGDRVTITCKASQDVGTAVVWYQQKPGKAPKLLIYWASSRHEGVPDRFTGSGSGTDFTLTISSLQSEDFADYFCQQYSRYPLTFGQGTKLEIK	0.71
humanized 5B9 variant VH3/VK3 (antibody, V domains shown) VH: QVQLVQSGAEVKKPGASVKVSCKATGYTFSNYWIEWIKQAPGQGLEWIGEIFPGSGRINFNEKFKGRVTFTADTSISTTYMELSRLRSDDTAVYYCARTKIYGNSFDYWGQGTLVTVSS VL: DIQMTQSPSSLSASVGDRVTITCRASQDVGTAVVWYQQKPGKAPKLLIYWASSRHEGVPSRFSGSGSGTDFTLTISSLQPEDFATYFCQQYSRYPLTFGQGTKLEIK	0.98

Qu. Name the reported Relative KD value associated with the binder IgG4(S241P)_N56E_VH0/Vκ1 (antibody, V domains shown, half-humanized control pairing; also called VH0/Vk1) VH: QVQLQQSGAELMKPGASVKISCKATGYTFSNYWIEWIKQRPGHGLEWIGEIFPGSGRINFNEKFKGKATFTADTSSDTTYMQLSSLTSADSAVYYCARTKIYGNSFDYWGQGTTLTVSP VL: DIMMTQSPSFLSASVGDRVTITCKASQDVGTAVVWYQQKPGKAPKLLIYWASSRHEGVPDRFTGSGSGTDFTLTISSLQSEDFADYFCQQYSRYPLTFGQGTKLEIK
Ans. 0.73
